Tested on: C. albicans ATCC 10231
Type: cell-based, Candida albicans
condition_info: ATCC 10231, 24 h, pH 7
Residues, ends and D or L forms follow the SMILES beside them. *: point of attachment. Myristoyl = CCCCCCCCCCCCCC(=O)*; Acm = CC(=O)NC*
quantity: MIC CA (µg/mL)
Answers are plain numbers, in µg/mL.

CCCCCCCCCCCCCC(=O)N[C@@H](C)C(=O)N[C@@H](CCCNC(=N)N)C(=O)N[C@@H](CCCNC(=N)N)C(N)=O [compound 10, C14-ARR-NH2] (HELM PEPTIDE1{[CCCCCCCCCCCCCC(=O)[*:2]].A.R.R.[am]}$$$$V2.0)	16
CCCCCCCCCCCCCC(=O)N[C@@H](CSCNC(C)=O)C(=O)N[C@@H](CCCNC(=N)N)C(=O)N[C@@H](CCCNC(=N)N)C(N)=O [compound 14, C14-C(Acm)RR-NH2] (Myristoyl-Cys(Acm)-Arg-Arg-NH2)	8
CCCCCCCCCCCC(=O)N[C@H](C(=O)N[C@@H](CCCNC(=N)N)C(=O)N[C@@H](CCCNC(=N)N)C(N)=O)[C@@H](C)O [compound 89, C12-TRR-NH2] (HELM PEPTIDE1{[CCCCCCCCCCCC(=O)[*:2]].T.R.R.[am]}$$$$V2.0)	64
CCCCCCCCCCCCCCCCCC(=O)N[C@@H](CCCNC(=N)N)C(=O)N[C@@H](CCCNC(=N)N)C(N)=O [compound 6, C18-RR-NH2, reference compound] (HELM PEPTIDE1{[CCCCCCCCCCCCCCCCCC(=O)[*:2]].R.R.[am]}$$$$V2.0)	4

Pending compound:
Which MIC CA reading was recorded for the compound CCCCCCCCCCCC(=O)N[C@@H](Cc1ccccc1)C(=O)N[C@@H](CCCNC(=N)N)C(=O)N[C@@H](CCCNC(=N)N)C(N)=O [compound 25, C12-FRR-NH2] (HELM PEPTIDE1{[CCCCCCCCCCCC(=O)[*:2]].F.R.R.[am]}$$$$V2.0) ? 8
